Value source: ChEMBL document CHEMBL1138937

Tgt: Sphingosine 1-phosphate receptor 5 (Homo sapiens)
Sequence (Q9H228 whole entry): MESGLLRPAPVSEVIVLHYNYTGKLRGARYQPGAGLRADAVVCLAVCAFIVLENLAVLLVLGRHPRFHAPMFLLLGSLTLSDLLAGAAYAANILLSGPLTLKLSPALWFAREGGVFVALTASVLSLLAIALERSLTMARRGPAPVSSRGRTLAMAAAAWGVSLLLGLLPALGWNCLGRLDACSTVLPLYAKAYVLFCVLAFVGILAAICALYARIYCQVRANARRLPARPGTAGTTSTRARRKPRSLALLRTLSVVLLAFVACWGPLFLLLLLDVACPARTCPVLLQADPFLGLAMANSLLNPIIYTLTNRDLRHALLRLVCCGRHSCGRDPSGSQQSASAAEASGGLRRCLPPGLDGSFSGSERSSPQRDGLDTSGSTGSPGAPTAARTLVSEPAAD
Test method notes: Agonist activity at S1P5 receptor expressed in CHO cells measured as S1P-induced [35S]GTP-gamma-S uptake
Type: functional, cell-based
pEC50: −log10 of the molar value.
Measurement type: pEC50

- Smiles data: "Cc1cc(CCC(=O)O)ccc1-c1noc(-c2ccc(OC(C)C)nc2)n1"
  Measurement type: "pEC50"
  Qual: "<"
  Measured result: 5.00
- Smiles data: "Cc1cc(C(=O)O)ccc1-c1noc(-c2ccc(C3CCCCC3)cc2)n1"
  Measurement type: "pEC50"
  Qual: "<"
  Measured result: 5.00
- Smiles data: "CCOc1ccc(-c2nc(-c3ccc(CCC(=O)O)cc3C)no2)cc1C(F)(F)F"
  Measurement type: "pEC50"
  Qual: "="
  Measured result: 6.59
- Smiles data: "COc1cc(-c2nc(-c3ccc(CCC(=O)O)cc3C)no2)ccc1OC(C)C"
  Measurement type: "pEC50"
  Qual: "="
  Measured result: 6.57
